- test_method_notes: Microsomal stability, human liver microsomes
- Assay type: in vitro ADME
- conditions_used: 10 μM compound
Measured HLM % remaining after 60 min of individual entries
The figure you give is taken to be in %; do not add the unit.

Known results for compounds:
Prompt: Given the compound CCOC(=O)c1ncn2c1[C@@H]1CCCN1C(=O)c1cc(O)ccc1-2 [RJ-02-50] , what is its reported HLM % remaining after 60 min?
Completion: 91.7

Prompt: Given the compound O=C1c2cc(O)ccc2-n2cnc(-c3cnco3)c2[C@@H]2CCCN12 [RJ-03-30] , what is its reported HLM % remaining after 60 min?
Completion: 91.8

Prompt: Given the compound COc1ccc2c(c1)C(=O)N1CCC[C@H]1c1c(-c3nnn[nH]3)ncn1-2 [RJ-03-57] , what is its reported HLM % remaining after 60 min?
Completion: 94.3

Prompt: Given the compound C#Cc1ccc2c(c1)C(c1ccccc1F)=N[C@H](C)c1c(C(=O)O)ncn1-2 [SH-053-2′F-R-CH3-Acid] , what is its reported HLM % remaining after 60 min?
Completion: 92.0

With those in mind, consider the next compound.
Prompt: Given the compound CC(C)(C)OC(=O)c1ncn2c1[C@@H]1CCCN1C(=O)c1cc(O)ccc1-2 [RJ-02-67] , what is its reported HLM % remaining after 60 min?
Completion: 90.6
